Test system: human MET
assay procedure: MET biochemical kinase assay
Parameters: concentration or dose not given beside the values
measured parameter: Met Kinase % Inhibition (%)

>>> print(df.to_string())
                                   compound       measured_parameter  measured
0              O=C1Nc2ccc(I)cc2C1=Cc1cccnc1  Met Kinase % Inhibition      66.0
1  CCN(CC)c1ccc(C=C2C(=O)Nc3ccc(S(=O)(=O)N4CCOCC4)cc32)cc1  Met Kinase % Inhibition      52.0
2  CNS(=O)(=O)c1ccc2c(c1)C(=Cc1ccc(O)c(C)c1)C(=O)N2  Met Kinase % Inhibition      60.0
3  COc1ccc(C=C2C(=O)Nc3ccc(S(=O)(=O)Nc4ccc(C(F)(F)F)cc4)cc32)c(OC)c1  Met Kinase % Inhibition       3.1
4  CNS(=O)(=O)c1ccc2c(c1)C(=Cc1cccc(C#N)c1)C(=O)N2  Met Kinase % Inhibition       8.5
5  O=C1Nc2ccc(S(=O)(=O)Nc3ccc(C(F)(F)F)cc3)cc2C1=Cc1ncc[nH]1  Met Kinase % Inhibition     −10.4
6  O=C1Nc2ccc(S(=O)(=O)Nc3ccc(C(F)(F)F)cc3)cc2C1=Cc1ccc(C(=O)O)cc1  Met Kinase % Inhibition      73.0
7  C=C(C)C1CC=C(C=C2C(=O)Nc3ccc(S(=O)(=O)N4CCOCC4)cc32)CC1 (stereo not drawn)  Met Kinase % Inhibition      17.0
8   O=C1Nc2ccc(I)cc2C1=Cc1cc(C(F)(F)F)ccc1F  Met Kinase % Inhibition      77.0

====

Tested on: human MET
assay procedure: MET biochemical kinase assay
Design: concentration or dose not given beside the values
# Met Kinase % Inhibition annotations
measured parameter: Met Kinase % Inhibition (%)

                  compound_structure_string  measured
0  Cc1ccc2occ(C=C3C(=O)Nc4c(Br)cc(Br)cc43)c(=O)c2c1      53.0
1  Cc1cc(C=C2C(=O)Nc3ccc(S(=O)(=O)Nc4ccc(C(F)(F)F)cc4)cc32)cc(C)c1OCc1ccccc1     −10.1
2  Cc1ccc(C=C2C(=O)Nc3ccc(S(=O)(=O)Nc4ccc(C(F)(F)F)cc4)cc32)s1      41.0
3  O=C1Nc2ccc(I)cc2C1=Cc1ccc(O)c([N+](=O)[O-])c1      51.0

====

tgt: FLK-1 receptor (Mus musculus)
Construct: expressed in transfected cells; host or cells: NIH3T3 C7#3 (FLK-1/NIH3T3)
Sequence (P35918 20-1345): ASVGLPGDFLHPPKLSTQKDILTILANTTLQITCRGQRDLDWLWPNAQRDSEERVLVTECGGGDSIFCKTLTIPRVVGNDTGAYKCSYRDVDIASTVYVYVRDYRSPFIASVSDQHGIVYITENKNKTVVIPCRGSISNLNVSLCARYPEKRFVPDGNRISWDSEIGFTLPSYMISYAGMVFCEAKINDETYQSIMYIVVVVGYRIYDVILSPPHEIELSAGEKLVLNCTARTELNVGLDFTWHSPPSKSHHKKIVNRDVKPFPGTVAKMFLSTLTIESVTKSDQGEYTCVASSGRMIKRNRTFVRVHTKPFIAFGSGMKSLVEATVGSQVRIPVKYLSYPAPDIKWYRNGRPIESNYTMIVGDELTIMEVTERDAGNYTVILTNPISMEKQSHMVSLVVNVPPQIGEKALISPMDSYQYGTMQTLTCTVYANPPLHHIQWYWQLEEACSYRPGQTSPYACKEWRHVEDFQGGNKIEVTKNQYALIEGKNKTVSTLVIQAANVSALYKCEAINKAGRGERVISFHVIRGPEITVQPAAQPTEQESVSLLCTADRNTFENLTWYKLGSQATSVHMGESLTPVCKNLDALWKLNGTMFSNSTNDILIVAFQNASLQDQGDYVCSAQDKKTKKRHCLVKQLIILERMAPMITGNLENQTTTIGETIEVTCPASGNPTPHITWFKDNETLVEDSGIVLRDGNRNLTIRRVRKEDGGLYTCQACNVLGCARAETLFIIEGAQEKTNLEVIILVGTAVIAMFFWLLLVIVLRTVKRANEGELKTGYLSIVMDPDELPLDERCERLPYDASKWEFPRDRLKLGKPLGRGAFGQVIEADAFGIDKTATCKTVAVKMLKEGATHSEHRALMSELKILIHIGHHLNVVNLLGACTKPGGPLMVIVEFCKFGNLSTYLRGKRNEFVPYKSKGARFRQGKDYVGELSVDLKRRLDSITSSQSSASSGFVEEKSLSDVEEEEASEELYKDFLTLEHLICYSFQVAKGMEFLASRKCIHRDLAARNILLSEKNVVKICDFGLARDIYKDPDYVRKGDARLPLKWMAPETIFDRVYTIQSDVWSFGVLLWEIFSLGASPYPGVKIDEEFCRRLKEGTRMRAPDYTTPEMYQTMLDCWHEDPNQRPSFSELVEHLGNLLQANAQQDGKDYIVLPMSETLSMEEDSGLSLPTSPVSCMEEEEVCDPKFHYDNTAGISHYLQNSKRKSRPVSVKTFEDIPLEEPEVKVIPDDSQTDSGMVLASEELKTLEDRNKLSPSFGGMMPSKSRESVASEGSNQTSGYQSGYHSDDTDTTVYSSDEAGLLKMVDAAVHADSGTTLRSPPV
assay procedure: FLK-1 ELISA (catalytic activity of the FLK-1 receptor in FLK-1/NIH3T3 cells)
Format: cell-based
conditions: Table 10; read-out: FLK Kinase IC50
pIC50: −log10 of the molar value.
measured parameter: pIC50

                   compound_structure_string  measured
 0  CN(C)CCCOc1ccc(/C=C2\C(=O)Nc3ccc(Cl)cc32)cc1      4.94
 1         CCc1ccc(/C=C2\C(=O)Nc3ccccc32)cc1      4.69
 2  O=CN1CCN(c2ccc(/C=C3\C(=O)Nc4ccccc43)cc2)CC1      5.21
 3    Cc1cc(C)n(C)c1/C=C1\C(=O)Nc2ccc(N)cc21      5.96
 4  COC(=O)CCc1c[nH]c(/C=C2\C(=O)Nc3cccc(C)c32)c1C      4.97
 5  CN(C)CCCOc1ccc(/C=C2\C(=O)Nc3ccc(N)cc32)cc1      4.86
 6  CCc1cc(CC)c(/C=C2\C(=O)Nc3ccc(N)cc32)[nH]1      5.25
 7  O=C1Nc2c(Br)cc(Cl)cc2/C1=C/c1cc(O)c(O)c(Br)c1      5.06
 8  COc1cc2c(cc1OC)/C(=C/c1coc3ccc(C(C)C)cc3c1=O)C(=O)N2      4.77
 9  COC(=O)CCc1c[nH]c(/C=C2\C(=O)Nc3ccc(N)cc32)c1C      5.33
10  Cc1cc(Cl)cc2c1NC(=O)/C2=C\c1cc(O)c(O)c(Br)c1      4.73
11   CCc1cc(CC)c(/C=C2\C(=O)Nc3ccccc32)[nH]1      5.09
12  CC(C)(C)c1cc(/C=C2\C(=O)Nc3ccc([N+](=O)[O-])cc32)cc([N+](=O)[O-])c1OCc1ccccc1      4.79
13   CC(C)(C)c1ccc(/C=C2\C(=O)Nc3ccccc32)cc1      5.01
14  COc1ccc(OC)c(/C=C2\C(=O)Nc3cccc(C)c32)c1      4.98
15         O=C1Nc2ccc(Cl)cc2/C1=C/c1ccc[nH]1      5.80
16  COc1c(O)ccc(/C=C2\C(=O)Nc3ccc(Cl)cc32)c1[N+](=O)[O-]      4.97
17        COc1ccc(/C=C2\C(=O)Nc3ccccc32)cc1O      5.54
18     Cc1cc(C)c2c(c1)NC(=O)/C2=C\c1c[nH]cn1      5.34
19  CN(C)CCCOc1ccc(/C=C2\C(=O)Nc3ccccc32)cc1      5.40
20  COC(=O)CCc1c[nH]c(/C=C2\C(=O)Nc3ccccc32)c1C      4.90
21  O=CN1CCN(c2ccc(/C=C3\C(=O)Nc4ccc(Cl)cc43)cc2)CC1      5.24
22  Cc1cc(C)c(/C=C2\C(=O)Nc3cccc(C)c32)[nH]1      5.14
23  Nc1ccc2c(c1)/C(=C/c1ccc(N3CCCC3)cc1)C(=O)N2      4.74
24  COC(=O)CCc1c[nH]c(/C=C2\C(=O)Nc3ccc(Cl)cc32)c1C      5.25
25  O=C1Nc2ccc(Cl)cc2/C1=C/c1ccc(N2CCCC2)cc1      4.91
26  Cc1cccc2c1/C(=C/c1cc(C(C)C)c(OCc3ccccc3)c(C(C)C)c1)C(=O)N2      4.70
27  CCc1c(C)[nH]c(/C=C2\C(=O)Nc3ccc(N)cc32)c1C      5.82
28  Cc1[nH]c(/C=C2\C(=O)Nc3ccc(N)cc32)c(Br)c1Br      5.72
29      O=C1Nc2ccccc2/C1=C/c1ccc(N2CCCC2)cc1      5.00
30  CCOC(=O)c1c(C)c(/C=C2\C(=O)Nc3ccccc32)n(C)c1C      6.01
31  Cc1cccc2c1/C(=C/c1ccc(OCCCN(C)C)cc1)C(=O)N2      5.10
32    O=C1Nc2ccc(Cl)cc2/C1=C/c1ccc(O)c(Br)c1      5.28

Just for reference, patent US7202265B2 is where these values come from.
